Tested on: DYRK2;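 also: KINOMEscan kinase panel screen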
Settings: concentration: 1 μM, replicates: in singlicate; n = 1
Provide the recorded %Inh for the entries that follow.
Answers are plain numbers, in %.

- molecule: "COc1ccc(-c2coc3ccc(-c4nnc(SCc5cccc(C#N)c5)o4)cc23)cc1"
  reported: 2

Each of the following entries comes with a recorded value; kindly state %Inh for each.
1. Cc1ccc(-c2ccc3c(ccc4sc5c(c43)NC[C@@H](C)N=C5N(C)C)n2)cn1
2. COc1cc2nccc(Nc3ccc(OCc4ccc(NC(C)=O)cc4)cc3)c2cc1OC.Cl
3. Nc1n[nH]c2ncc(-c3ccccc3)cc12
4. COc1cc(OC)cc(-c2cc3cnc(N)nc3nc2NC(=O)NC(C)(C)C)c1

Response:
[0, 4, 30, 0]

Hey, just so you know, these numbers are from paper PMC5540273.
